Value source: patent US8697721B2

Biological target: dopamine (DA) reuptake in synaptosomes (Rattus norvegicus)
Construct: in synaptosomes as described in WO 97/16451
Sequence (P23977 whole entry): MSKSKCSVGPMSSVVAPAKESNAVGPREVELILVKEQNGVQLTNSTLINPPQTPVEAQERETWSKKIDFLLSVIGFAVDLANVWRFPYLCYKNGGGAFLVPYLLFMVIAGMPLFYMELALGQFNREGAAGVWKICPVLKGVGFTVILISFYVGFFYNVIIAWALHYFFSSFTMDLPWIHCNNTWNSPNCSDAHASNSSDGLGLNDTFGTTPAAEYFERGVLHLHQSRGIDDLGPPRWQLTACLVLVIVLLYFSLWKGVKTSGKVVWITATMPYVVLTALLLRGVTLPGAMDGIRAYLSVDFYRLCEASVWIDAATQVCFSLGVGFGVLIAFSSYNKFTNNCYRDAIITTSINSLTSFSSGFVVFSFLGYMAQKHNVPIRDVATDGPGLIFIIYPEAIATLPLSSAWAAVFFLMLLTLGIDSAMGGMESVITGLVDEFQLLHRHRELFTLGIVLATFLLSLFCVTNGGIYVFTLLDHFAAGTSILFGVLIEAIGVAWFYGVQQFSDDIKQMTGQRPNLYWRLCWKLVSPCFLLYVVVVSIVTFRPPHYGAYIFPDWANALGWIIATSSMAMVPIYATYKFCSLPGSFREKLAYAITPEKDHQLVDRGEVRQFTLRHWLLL
Assay: In vitro inhibition of 3H-DA reuptake in synaptosomes
Conditions: mean ± spread (n), read-out: DA-uptake IC50
METRIC: pIC50
Reminder that pIC50 means the negative base-10 logarithm of the concentration expressed in mol/L.

q: I'm curious: which pIC50 was measured for Cc1cc2ccc(O[C@@H]3C[C@H]4CC[C@@H](C3)N4)cc2oc1=O tested on dopamine (DA) reuptake in synaptosomes (Rattus norvegicus)?
a: 6.77

* * *

Biological target: noradrenaline (NA) reuptake in synaptosomes (Rattus norvegicus)
Construct: in synaptosomes as described in WO 97/16451
Sequence (Q63380 1-617): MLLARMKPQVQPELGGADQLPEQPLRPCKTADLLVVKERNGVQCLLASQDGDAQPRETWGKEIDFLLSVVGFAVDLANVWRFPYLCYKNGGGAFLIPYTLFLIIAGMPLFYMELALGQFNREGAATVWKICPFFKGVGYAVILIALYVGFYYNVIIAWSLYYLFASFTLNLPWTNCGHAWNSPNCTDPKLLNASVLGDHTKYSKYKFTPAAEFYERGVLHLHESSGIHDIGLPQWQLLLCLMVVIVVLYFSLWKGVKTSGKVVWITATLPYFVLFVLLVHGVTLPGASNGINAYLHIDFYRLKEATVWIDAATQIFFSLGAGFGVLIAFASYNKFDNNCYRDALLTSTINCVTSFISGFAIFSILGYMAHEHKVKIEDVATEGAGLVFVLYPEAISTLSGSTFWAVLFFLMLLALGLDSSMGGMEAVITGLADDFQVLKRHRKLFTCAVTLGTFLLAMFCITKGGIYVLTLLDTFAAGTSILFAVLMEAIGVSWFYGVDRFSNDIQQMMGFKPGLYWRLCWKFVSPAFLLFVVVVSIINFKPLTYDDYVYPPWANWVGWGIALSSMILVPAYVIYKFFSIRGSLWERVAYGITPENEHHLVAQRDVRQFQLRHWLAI
Experiment: In vitro inhibition of 3H-NA reuptake in synaptosomes
Conditions: mean ± spread (n), read-out: NA-uptake IC50
METRIC: IC50 (nM)
Kindly answer with a numeric value in nM, unit omitted.

q: Fill in the recorded IC50 for this compound, with noradrenaline (NA) reuptake in synaptosomes (Rattus norvegicus) as test system: Cc1cc2ccc(O[C@@H]3C[C@H]4CC[C@@H](C3)N4)cc2oc1=O [Compound 1.1]
a: 11
